# MEASURED_ON: recombinant human ALX receptor (Homo sapiens)
# TEST_NAME: Intracellular calcium measurements (FLIPR), ALX receptor agonistic activity
# PROTOCOL_CONDITIONS: HEK293-hALXR-Gα16 cells, Fluo-4 calcium signal, normalized to WKYMVm 10 nM
pEC50: −log10 of the molar value.
Some compounds, each annotated with its measured pEC50.
ASSAY_METRIC: pEC50

* COc1ccc(C[C@H](NC(=O)NC2CC(C)(C)NC(C)(C)C2)c2nc3ccccc3[nH]2)cc1 | 6.09
* COc1ccc(C[C@@H](NC(=O)NC(c2ccccn2)C(F)(F)F)c2nc3ccccc3[nH]2)cc1 (stereo partly shown) | 7.09
* O=C(NC(Cc1ccc(Br)cc1F)c1nc2ccccc2[nH]1)N[C@H]1CC[C@H](O)CC1 (single isomer, unassigned; ent-1) [Example 313] | 8.62
* CCC[C@@H](NC(=O)N[C@H](Cc1ccc(OC)cc1)c1nc2ccccc2[nH]1)c1ccccc1 | 6.43
* COc1ccc(CC(C)(NC(=O)N[C@H]2CC[C@H](O)CC2)c2nc3ccccc3[nH]2)cc1 (relative stereo) | 6.82
* CC1(O)CCC(NC(=O)NC(Cc2ccc(Br)cc2F)c2nc3ccccc3[nH]2)CC1 (single isomer, unassigned; ent-1) | 8.05
* COc1ccc(C[C@@H](NC(=O)NCc2ccc(CN(C)C)cc2)c2nc3ccccc3[nH]2)cc1 | 6.47

====

# MEASURED_ON: recombinant human ALX receptor (Homo sapiens, UniProt P25090)
# TEST_NAME: Intracellular calcium measurements (FLIPR), ALX receptor agonistic activity
# PROTOCOL_CONDITIONS: HEK293-hALXR-Gα16 cells, Fluo-4 calcium signal, normalized to WKYMVm 10 nM
# Description: The ALX receptor agonistic activity of the compounds of formula (I) is determined in accordance with the following experimental method. Intracellular Calcium Measurements: Cells expressing recombinant human ALX receptor and the G-protein Gα16 (HEK293-hALXR-Gα16) were grown to 80% confluency in Growing Medium (GM). […] Changes in fluorescence were monitored before and after the addition of test compounds at lex=488 nm and lem=540 nm. […]
Where a name gives a salt, the structure may show the parent alone.
Some molecules, each annotated with its measured log10 of EC50.
ASSAY_METRIC: log10 of EC50 (log10 of the value in µM)

* COc1ccc(C[C@@H](NC(=O)NC23CCC(O)(CC2)CC3)c2nc3ccccc3[nH]2)cc1 [Example 166] | -2.68
* O=C(NC(Cc1ccc(C(F)(F)F)c(F)c1)c1nc2ccccc2[nH]1)N[C@H]1CC[C@H](O)CC1 (relative stereo) [Example 237] | -1.44
* COc1ccc(C[C@@H](NC(=O)NC2CN3CCC2CC3)c2nc3ccc(C#N)cc3[nH]2)cc1 (stereo partly shown) [Example 154] | -2.17
* COc1ccc(C[C@@H](NC(=O)NC2CCCCC2)c2nc3ccccc3[nH]2)cc1 [Example 17, hydrochloride] | -1.33
* COc1ccc(CC(NC(=O)NCc2ccccc2OC)c2nc3ccccc3[nH]2)cc1 (stereo not shown) [Example 44] | -0.33
* COc1ccc(C[C@@H](NC(=O)N[C@@H]2CCN(C(C)=O)C2)c2nc3ccccc3[nH]2)cc1 [Example 142] | -0.51
* COc1ccc(CC(NC(=O)NC2CCC(CO)CC2)c2nc3ccccc3[nH]2)cc1 (stereo not shown) [Example 74] | -1.89
* COc1ccc(CC(NC(=O)N[C@H]2CC[C@H](O)CC2)c2nc3ccccc3[nH]2)cc1F (relative stereo) [Example 167] | -2.02
* COc1ccc(C[C@@H](NC(=O)NCCc2ccccc2)c2nc3ccccc3[nH]2)cc1 [Example 67] | -0.38
* COc1ccc(CC(NC(=O)NCc2csc(C)n2)c2nc3ccccc3[nH]2)cc1 (stereo not shown) [Example 48] | 0.00
* COc1ccc(C[C@@H](NC(=O)N[C@@H]2CCCNC2)c2nc3ccccc3[nH]2)cc1 [Example 131] | -1.82
* COc1ccc(C2(C(NC(=O)N[C@H]3CC[C@H](O)CC3)c3nc4ccccc4[nH]3)CC2)cc1 (relative stereo) [Example 2] | -1.09
* COc1ccc(C[C@@H](NC(=O)N[C@@H]2CNC[C@@H]2F)c2nc3ccccc3[nH]2)cc1 (relative stereo) [Example 185] | -0.84

====

Some compounds, each annotated with its measured log10(EC50).
# MEASURED_ON: recombinant human ALX receptor (Homo sapiens)
# TEST_NAME: Intracellular calcium measurements (FLIPR), ALX receptor agonistic activity
# PROTOCOL_CONDITIONS: HEK293-hALXR-Gα16 cells, Fluo-4 calcium signal, normalized to WKYMVm 10 nM
ASSAY_METRIC: log10(EC50) (log10 of the value in nM)

* COc1ccc(C[C@@H](NC(=O)NC[C@@H](O)c2ccccc2)c2nc3ccccc3[nH]2)cc1 | 2.02
* CCOC(=O)[C@@H]1CCCC[C@@H]1NC(=O)N[C@H](Cc1ccc(OC)cc1)c1nc2ccccc2[nH]1 (relative stereo) | 0.96
* COc1ccc(C[C@@H](NC(=O)NC2CC2)c2nc3ccccc3[nH]2)cc1 | 2.78
* COc1ccc(C[C@@H](NC(=O)NCC(c2ccccc2)N2CCOCC2)c2nc3ccccc3[nH]2)cc1 (stereo partly shown) | 0.95
* COc1ccc(C[C@@H](NC(=O)N2CCCCC2)c2nc3ccccc3[nH]2)cc1 | 2.60
* COC[C@H](Cc1ccccc1)NC(=O)N[C@H](Cc1ccc(OC)cc1)c1nc2ccccc2[nH]1 | 0.70
* COc1ccc(CC(NC(=O)NC23CCC(O)(CC2)CC3)c2nc3ccccc3[nH]2)cc1F (single isomer, unassigned; ent-1) [Example 257] | 0.30

====

# MEASURED_ON: recombinant human ALX receptor (Homo sapiens, UniProt P25090)
# TEST_NAME: Intracellular calcium measurements (FLIPR), ALX receptor agonistic activity
# PROTOCOL_CONDITIONS: HEK293-hALXR-Gα16 cells, Fluo-4 calcium signal, normalized to WKYMVm 10 nM
pEC50: −log10 of the molar value.
ASSAY_METRIC: pEC50

• COc1ccc(C[C@@H](NC(=O)Nc2c(-c3ccccc3)noc2C)c2nc3ccccc3[nH]2)cc1 [Example 213] = 7.28
• COc1ccc(C[C@@H](NC(=O)N[C@H](C)c2cccc(OC)c2)c2nc3ccccc3[nH]2)cc1 [Example 332] = 7.00
• COc1ccc(C[C@@H](NC(=O)N[C@H]2CC[C@@H](C(=O)OC)CC2)c2nc3ccccc3[nH]2)cc1 [Example 223] = 6.75
• COc1ccc(C[C@@H](NC(=O)N2CC3CCC2CN3C)c2nc3ccccc3[nH]2)cc1 (stereo partly drawn) [Example 168] = 7.06
• COc1cc(F)c(CC(NC(=O)NC23CCC(O)(CC2)CC3)c2nc3ccccc3[nH]2)c(F)c1 (stereo not drawn) [Example 248] = 8.35
• COc1ccc(C[C@@H](NC(=O)NCc2ccccc2C)c2nc3ccccc3[nH]2)cc1 [Example 202] = 6.22
• COc1ccc(C[C@@H](NC(=O)NCc2nc(C(C)(F)F)co2)c2nc3ccccc3[nH]2)cc1 [Example 423] = 6.25
• COc1ccc(C[C@@H](NC(=O)N[C@@H]2CCCN(C(C)=O)C2)c2nc3ccccc3[nH]2)cc1 [Example 140] = 7.21
• COc1ccc(CC(NC(=O)Nc2ccnn2-c2ccc(C)cc2)c2nc3ccccc3[nH]2)cc1 (stereo not drawn) [Example 420] = 6.68
• COc1ccc(C[C@@H](NC(=O)NCc2ccccc2OC(F)F)c2nc3ccccc3[nH]2)cc1 [Example 198] = 6.52
• COc1ccc(C[C@@H](NC(=O)NC2CCN(Cc3ccccc3)CC2)c2nc3ccccc3[nH]2)cc1 [Example 88] = 7.00
• COc1ccc(C[C@@H](NC(=O)NCC2CCN(C(=O)OC(C)(C)C)CC2)c2nc3ccccc3[nH]2)cc1 [Example 146] = 6.29
• COc1ccc(CCNC(=O)N[C@H](Cc2ccc(OC)cc2)c2nc3ccccc3[nH]2)cc1 [Example 54] = 6.01
• COc1ccc(CC(NC(=O)NC23CCC(O)(CC2)CC3)c2nc3ccc(F)cc3[nH]2)cc1F (single isomer, unassigned; ent-2) [Example 372] = 6.11
• COc1ccc(C[C@@H](NC(=O)NCCC(N)=O)c2nc3ccccc3[nH]2)cc1 [Example 110] = 6.13

====

# MEASURED_ON: recombinant human ALX receptor (Homo sapiens, UniProt P25090)
# Sequence (P25090 1-351): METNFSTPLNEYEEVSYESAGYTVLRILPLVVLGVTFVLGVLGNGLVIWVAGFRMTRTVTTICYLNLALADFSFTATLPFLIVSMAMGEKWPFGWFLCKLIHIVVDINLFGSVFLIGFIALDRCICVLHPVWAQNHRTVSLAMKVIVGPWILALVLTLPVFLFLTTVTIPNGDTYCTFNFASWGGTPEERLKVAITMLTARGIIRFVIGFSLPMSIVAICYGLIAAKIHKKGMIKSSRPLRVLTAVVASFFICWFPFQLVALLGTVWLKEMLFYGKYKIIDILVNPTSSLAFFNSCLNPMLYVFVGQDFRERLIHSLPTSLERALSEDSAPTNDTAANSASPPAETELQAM
# TEST_NAME: Intracellular calcium measurements (FLIPR), ALX receptor agonistic activity
# PROTOCOL_CONDITIONS: HEK293-hALXR-Gα16 cells, Fluo-4 calcium signal, normalized to WKYMVm 10 nM
pEC50: −log10 of the molar value.
Please enter Satisfied where pEC50 is greater than or equal to 7, and Not satisfied where it is lower.

- COc1ccc(CC(NC(=O)NCc2ccon2)c2nc3ccccc3[nH]2)cc1 (centres unmarked): Not satisfied
- COc1ccc(C[C@@H](NC(=O)Nc2ccccc2OC)c2nc3ccccc3[nH]2)cc1: Not satisfied
- COc1ccc(CC(NC(=O)Nc2cc(C)on2)c2nc3ccccc3[nH]2)cc1 (centres unmarked): Not satisfied
- O=C(N[C@H](Cc1ccc(Cl)cc1)c1nc2ccccc2[nH]1)N[C@H]1CC[C@H](O)CC1: Satisfied
- COc1ccc(C[C@@H](NC(=O)N[C@H](C)c2ccccc2)c2nc3ccccc3[nH]2)cc1: Not satisfied
- COc1ccc(C[C@@H](NC(=O)NC2CCN(C3CCCCC3)CC2)c2nc3ccccc3[nH]2)cc1: Satisfied
- COc1ccc(C[C@@H](NC(=O)N[C@@H](C)c2ccccc2OC)c2nc3ccccc3[nH]2)cc1: Satisfied
- COc1ccc(C[C@@H](NC(=O)NC2CCN(S(C)(=O)=O)C2)c2nc3ccccc3[nH]2)cc1 (some centres unmarked): Not satisfied
- O=C(N[C@H](Cc1ccc(Br)cc1)c1nc2ccccc2[nH]1)NC12CCC(O)(CC1)CC2: Satisfied
- COc1ccc(C[C@@H](NC(=O)NC(C)c2cn3ccsc3n2)c2nc3ccccc3[nH]2)cc1 (some centres unmarked): Satisfied
- COc1ccc(CC(NC(=O)NC23CCC(O)(CC2)CC3)c2nc3ccc(F)cc3[nH]2)cc1F (single isomer, unassigned; ent-1) [Example 319]: Satisfied
- COc1ccc(CC(NC(=O)Nc2ccnn2-c2cccc(OC)c2)c2nc3ccccc3[nH]2)cc1 (centres unmarked): Satisfied
- COc1ccc(CC(NC(=O)N[C@H]2CC[C@H](O)CC2)c2nc3ccccc3[nH]2)c(C)c1 (relative stereo): Satisfied
- COc1ccc(C[C@@H](NC(=O)NCc2ccccc2)c2nc3ccccc3[nH]2)cc1: Not satisfied
- COc1ccc(C[C@@H](NC(=O)N[C@H](C)c2ccc(Br)cc2)c2nc3ccccc3[nH]2)cc1: Not satisfied
- CC1(O)CCC(NC(=O)NC(Cc2ccc(Br)c(F)c2)c2nc3ccccc3[nH]2)CC1 (single isomer, unassigned; ent-2): Satisfied
- COc1ccc(C[C@@H](NC(=O)N[C@@H]2CCC[C@H]2O)c2nc3ccccc3[nH]2)cc1: Satisfied
- C[C@]1(O)CC[C@H](NC(=O)N[C@H](Cc2ccc(C(F)(F)F)cc2)c2nc3ccccc3[nH]2)CC1: Satisfied
- COc1ccc(C(C)C(NC(=O)N[C@H]2CC[C@H](O)CC2)c2nc3ccccc3[nH]2)cc1 (relative stereo): Satisfied
- COc1ccc(C[C@@H](NC(=O)NCc2nn(C)c3ccccc23)c2nc3ccccc3[nH]2)cc1: Not satisfied
- COc1ccc(CC(NC(=O)N[C@H]2CC[C@H](O)CC2)c2nc3ccc(F)cc3[nH]2)c(F)c1 (relative stereo) [Example 244]: Satisfied
- COc1ccc(C[C@@H](NC(=O)NC23CCC(O)(CC2)CC3)c2nc3ccc(Cl)cc3[nH]2)cc1: Satisfied
- O=C(N[C@H](Cc1ccc(C(F)(F)F)cc1)c1nc2cc(F)ccc2[nH]1)NC12CCC(O)(CC1)CC2: Satisfied
- COc1ccc(C[C@@H](NC(=O)N[C@H]2CCCC[C@H]2C(N)=O)c2nc3ccccc3[nH]2)cc1 (relative stereo): Satisfied
- O=C(NC(Cc1ccc(OC(F)(F)F)cc1)c1nc2ccccc2[nH]1)NC1CN2CCC1CC2 (centres unmarked): Not satisfied
